molecular target: EPHB1 (UniProt P54762); assay: phosphorylation enrichment, bacterial display (enrichment ratio); higher = better substrate or ligand; peptides without Tyr show the background;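 further: 11-residue human phosphosite peptides and single-mutation variants displayed on the E. coli surface, counted by deep sequencing, each peptide's frequency after selection divided by its frequency in the unselected input library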;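 further: frequency after pTyr selection over input frequency; kinase dosed for 20-30% of maximal phosphorylation in three min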
Sequence (P54762 whole entry, looked up): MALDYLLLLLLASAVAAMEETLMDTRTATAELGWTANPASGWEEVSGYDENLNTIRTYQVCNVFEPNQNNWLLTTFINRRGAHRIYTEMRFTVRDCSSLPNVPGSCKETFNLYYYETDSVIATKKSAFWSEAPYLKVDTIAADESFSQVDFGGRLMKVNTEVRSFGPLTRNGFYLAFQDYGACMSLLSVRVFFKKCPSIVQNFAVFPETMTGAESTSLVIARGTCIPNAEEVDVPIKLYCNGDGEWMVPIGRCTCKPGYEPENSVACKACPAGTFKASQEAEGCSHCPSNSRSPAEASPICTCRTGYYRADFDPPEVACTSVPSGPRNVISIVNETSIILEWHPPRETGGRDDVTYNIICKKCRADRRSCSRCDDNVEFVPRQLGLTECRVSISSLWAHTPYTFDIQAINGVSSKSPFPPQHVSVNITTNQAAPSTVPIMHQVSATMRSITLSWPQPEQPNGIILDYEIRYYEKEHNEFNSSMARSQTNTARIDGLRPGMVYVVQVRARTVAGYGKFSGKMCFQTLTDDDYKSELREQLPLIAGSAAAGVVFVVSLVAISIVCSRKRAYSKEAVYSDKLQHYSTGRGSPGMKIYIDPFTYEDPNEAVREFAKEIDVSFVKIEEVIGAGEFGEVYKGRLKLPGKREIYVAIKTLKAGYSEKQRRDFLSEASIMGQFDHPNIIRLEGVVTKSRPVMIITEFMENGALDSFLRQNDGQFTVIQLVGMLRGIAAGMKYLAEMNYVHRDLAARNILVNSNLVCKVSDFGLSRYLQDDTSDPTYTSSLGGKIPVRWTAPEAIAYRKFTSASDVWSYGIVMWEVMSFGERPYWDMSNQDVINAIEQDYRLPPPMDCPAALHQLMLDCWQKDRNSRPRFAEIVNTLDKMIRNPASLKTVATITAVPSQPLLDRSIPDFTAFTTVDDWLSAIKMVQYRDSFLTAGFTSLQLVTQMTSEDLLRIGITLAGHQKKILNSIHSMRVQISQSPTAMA
Measure: phosphorylation enrichment

{"Item sequence": "NLFIEYPTGSG [IRF2BPL_Y423_K418N]", "Numeric value": 0.504}
{"Item sequence": "REGAKYVSHGT [ASS1_Y113_A118T]", "Numeric value": 0.513}
{"Item sequence": "RFVSRYIFNRE [HLA-DQB1_Y62_T60S_YF]", "Numeric value": 1.13}
{"Item sequence": "CDIPRYIVSQL [MAST2_Y461]", "Numeric value": 0.535}
{"Item sequence": "KNNDGYIDYAE [MCFD2_Y135]", "Numeric value": 0.538}
{"Item sequence": "NNPAYYVLEGV [INPPL1_Y987]", "Numeric value": 0.764}
{"Item sequence": "PPPELYFVKVD [TERT_Y707]", "Numeric value": 0.629}
{"Item sequence": "LDPDSYNKFEN [FOXC1_Y159_M161K]", "Numeric value": 0.758}
{"Item sequence": "KLFFIYTPGTT [SLC27A4_Y245_S247P_YF]", "Numeric value": 0.637}
{"Item sequence": "SRNKPYISWPS [CDC42BPB_Y1638]", "Numeric value": 0.417}
{"Item sequence": "AESPEHVHMYT [FAM111A_Y511_Y511H]", "Numeric value": 0.523}
{"Item sequence": "LADKPYTFEFF [FXN_Y118_D122Y_YF]", "Numeric value": 0.764}
{"Item sequence": "KDHPDYKYPPR [SOX10_Y171_Q174P]", "Numeric value": 0.355}
{"Item sequence": "TVSTGYTQPQP [SARG_Y259_R258G]", "Numeric value": 0.378}
{"Item sequence": "ISSLDYISKSK [VAV3_Y294_T298S]", "Numeric value": 0.38}
{"Item sequence": "EIHTQYEAMAS [GFAP_Y242_R239H]", "Numeric value": 0.386}
{"Item sequence": "NTILLYHIMAW [GPR143_Y157_S152N]", "Numeric value": 5.65}
{"Item sequence": "KEEEDYKEENN [BMS1_Y651]", "Numeric value": 0.532}
{"Item sequence": "KENITYMKSEQ [L1TD1_Y24_R27S]", "Numeric value": 0.411}
{"Item sequence": "SSQHRYSTPHA [RAF1_Y232]", "Numeric value": 0.479}
{"Item sequence": "LNCIYYKDQTG [RS1_Y166_W163C]", "Numeric value": 3.64}
{"Item sequence": "IQKKFYRAILE [CHD7_Y1218_YF]", "Numeric value": 0.396}
{"Item sequence": "PQAVTYAKVKH [LILRB4_Y360]", "Numeric value": 0.421}
{"Item sequence": "LLLLFCVVRFC [MPZ_Y177_Y177C_YF]", "Numeric value": 0.803}
{"Item sequence": "EGWQVYRLGAR [MISP_Y95]", "Numeric value": 0.493}
{"Item sequence": "MASTSYDYCRV [BST2_Y6]", "Numeric value": 4.88}
{"Item sequence": "MRAIIYNSSTA [PLEKHA7_Y243_L241I]", "Numeric value": 0.473}
{"Item sequence": "WKKEIYEESST [MOCS2_Y170]", "Numeric value": 0.422}
{"Item sequence": "LERFIYNRQEF [HLA-DPB1_Y59_E62Q_YF]", "Numeric value": 0.436}
{"Item sequence": "FSKQIYKGMVA [PCDH15_Y931_R929Q]", "Numeric value": 0.351}
